# Tested on: K24384-001-R-PDC KRAS patient-derived spheroid viability;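 note: spheroids exposed to agents for 7 days before readout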
# methodNotes: Anticancer human tumor K24384-001-R-PDC patient-derived pancreatic adenocarcinoma cell line growth inhibition [KRAS2]
# runParameters: compound alone; run of 08/26/2021; spheroids with HUVEC and MSC
So I've got a bunch of compounds here, and I need their IC50 values.

{"columns": ["compound", "IC50"],
 "data": [
  ["CC1OCC2(CCN(c3cnc(Sc4ccnc(N)c4Cl)c(N)n3)CC2)C1N (centres undefined)", "> 10 µM"],
  ["CNCc1ccccc1-c1csc(C(C)Nc2nc(C)nc3cc(OC)c(OC)cc23)c1 (centres undefined)", "1.7 µM [middle of 5 runs]"],
  ["C=CC(=O)N1CCN(c2nc(OCC3CCCN3C)nc3c2CCN(c2cccc4cccc(C)c24)C3)CC1CC#N (centres undefined)", "1.7 µM [middle of 5 runs]"]
]}

Alright, here's another compound for you.
Look up IC50 for this compound: COc1cc2nc(C)nc(NC(C)c3cc(N)cc(C(F)(F)F)c3)c2cc1OC1CCOC1 (centres undefined)
> 10 µM
